Cited source: patent US20160297884A1

Listed here: items and their measured koff.
Target: T1, cynomolgus monkey BCMA (cynomolgus monkey, UniProt A0A2K5UD97 1-53)
T1 construct: Soluble analyte in SPR; construct not described; also called cyBCMA; Cyno BCMA
T1 sequence (A0A2K5UD97 entry or part of it): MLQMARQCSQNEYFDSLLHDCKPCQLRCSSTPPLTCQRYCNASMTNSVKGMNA
Experiment: SPR, IgG immobilised, 25 C
Experimental: All experiments were performed on a Bio-Rad Proteon XPR36 surface Plasmon resonance biosensor (Bio-Rad, Hercules, Calif.). […] The analysis temperature for the immobilization was 25° C. and the running buffer was HBS-T+(10 mM HEPES, 150 mM NaCl, 0.05% Tween-20, pH 7.4). […] The analysis temperature for the BCMA binding analysis was 37° C. or 25° C. in a running buffer of HBS-T+, supplemented with 1 mg/mL BSA. […] Immediately after the 50 nM BCMA injection, dissociation was monitored for 2 hours. […]

Binder	koff (s⁻¹)
L1.GDF/L3.NY/P6E01 (antibody, V domains shown, IgG) VH: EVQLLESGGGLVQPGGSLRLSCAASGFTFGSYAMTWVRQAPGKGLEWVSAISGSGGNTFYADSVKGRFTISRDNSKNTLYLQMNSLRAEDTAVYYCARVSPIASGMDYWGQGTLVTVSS VL: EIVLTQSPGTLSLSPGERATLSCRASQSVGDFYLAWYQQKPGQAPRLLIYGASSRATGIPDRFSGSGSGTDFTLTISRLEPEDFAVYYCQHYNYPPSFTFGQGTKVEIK	0.00767
L1.GDF/L3.KW/H3.AQ (antibody, V domains shown, IgG) VH: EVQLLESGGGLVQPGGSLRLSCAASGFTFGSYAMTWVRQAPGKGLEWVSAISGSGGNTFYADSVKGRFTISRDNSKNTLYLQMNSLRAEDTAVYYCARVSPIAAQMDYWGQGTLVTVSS VL: EIVLTQSPGTLSLSPGERATLSCRASQSVGDFYLAWYQQKPGQAPRLLIYGASSRATGIPDRFSGSGSGTDFTLTISRLEPEDFAVYYCKHYGWPPSFTFGQGTKVEIK	0.00565
L1.LGF/L3.PY/H3.AQ (antibody, V domains shown, IgG) VH: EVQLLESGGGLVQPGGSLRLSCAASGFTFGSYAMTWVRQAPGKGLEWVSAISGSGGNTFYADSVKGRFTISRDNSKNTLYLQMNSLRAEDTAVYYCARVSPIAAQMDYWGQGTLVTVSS VL: EIVLTQSPGTLSLSPGERATLSCRASQSLGSFYLAWYQQKPGQAPRLLIYGASSRATGIPDRFSGSGSGTDFTLTISRLEPEDFAVYYCQHYPYPPSFTFGQGTKVEIK	0.00477
